Entry source: patent US10562935B2

assay: Direct HA-binding ELISA of biotinylated peptides on HA coated plates (Example 4); parameters: key: absorbance (color) read at 450 nm; conditions: as repeated in tables 16, 18, 20
Bridges are numbered along the chain shown (N, C = ends).
experimental.endpoint: HA binding
Respond with the number and no other words.

Req: HA binding for Ac-KIKHVVKLKDENSQLKSEVSKLRSQLVKRK-NH2 [Compound 265] ?
Resp: 0.10

Req: Same question for Ac-(cyclo-6,10)-VSKLR[KQLVE]RKQN-NH2 (Ac-VSKLRKQLVERKQN-NH2; lactam 6-10; SMILES CC(=O)N[C@H](C(=O)N[C@@H](CO)C(=O)N[C@@H](CCCCN)C(=O)N[C@@H](CC(C)C)C(=O)N[C@@H](CCCNC(=N)N)C(=O)N[C@H]1CCCCNC(=O)CC[C@@H](C(=O)N[C@@H](CCCNC(=N)N)C(=O)N[C@@H](CCCCN)C(=O)N[C@@H](CCC(N)=O)C(=O)N[C@@H](CC(N)=O)C(N)=O)NC(=O)[C@H](C(C)C)NC(=O)[C@H](CC(C)C)NC(=O)[C@H](CCC(N)=O)NC1=O)C(C)C) [Compound 155] please.
Resp: 0.05

Req: Same question for Ac-(cyclo-4,8)-VSK[ERSQK]VKRKQN-NH2 (Ac-VSKERSQKVKRKQN-NH2; lactam 4-8; SMILES CC(=O)N[C@H](C(=O)N[C@@H](CO)C(=O)N[C@@H](CCCCN)C(=O)N[C@H]1CCC(=O)NCCCC[C@@H](C(=O)N[C@H](C(=O)N[C@@H](CCCCN)C(=O)N[C@@H](CCCNC(=N)N)C(=O)N[C@@H](CCCCN)C(=O)N[C@@H](CCC(N)=O)C(=O)N[C@@H](CC(N)=O)C(N)=O)C(C)C)NC(=O)[C@H](CCC(N)=O)NC(=O)[C@H](CO)NC(=O)[C@H](CCCNC(=N)N)NC1=O)C(C)C) [Compound 150] please.
Resp: 0.015
